Please respond with reported inhibition for every item in the list.
Biological target: Induced myeloid leukemia cell differentiation protein Mcl-1 (Homo sapiens) (UniProt Q07820)
Sequence (Q07820 whole entry, looked up): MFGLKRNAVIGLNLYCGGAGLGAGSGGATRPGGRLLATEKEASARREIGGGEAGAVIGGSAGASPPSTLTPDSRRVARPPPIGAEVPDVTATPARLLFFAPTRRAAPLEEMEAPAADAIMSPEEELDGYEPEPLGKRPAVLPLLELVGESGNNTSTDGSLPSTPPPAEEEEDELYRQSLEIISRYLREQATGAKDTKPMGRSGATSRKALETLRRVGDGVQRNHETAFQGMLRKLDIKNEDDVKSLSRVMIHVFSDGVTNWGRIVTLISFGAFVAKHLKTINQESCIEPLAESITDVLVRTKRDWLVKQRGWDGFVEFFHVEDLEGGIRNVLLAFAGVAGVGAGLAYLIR
Test: disruptors of Mcl-1 and Noxa BH3 peptide – biochemical, TR-FRET, 1536-well, primary screen (AID 1022);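 also: His-tagged Mcl-1 with rhodamine Noxa BH3 peptide and terbium anti-His antibody; 0% = Mcl-1 plus Noxa peptide wells and 100% = peptide-only wells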
Conditions: TR-FRET Mcl-1/Noxa peptide binding, 2 h; at 21.7 µM; hits give high values
Out of some 220,000 compounds screened, about 3,300 (1.5%) were called active. This excerpt belongs to a sample that is enriched for actives.

Supply recorded inhibition for "Fc1ccc(-c2ccc(-c3nn4c(-c5ccco5)nnc4s3)o2)cc1" here.
71% (active)

Complete the entry with inhibition for "CC(C)NC(=O)NNc1c(Cl)cncc1Cl"
3.37% (inactive)

Report inhibition for "Cc1nnc2sc(-c3ccco3)nn12"
3.91% (inactive)

Supply measured inhibition of "Cc1cc(-c2nc(C)c(-c3nnc(SCC(=O)Nc4ccccc4)n3C)s2)no1" in your reply.
3.26% (inactive)

In one line, give reported inhibition of the entry "Cc1cc(C(=O)NNS(=O)(=O)c2ccccc2C(F)(F)F)nn1C(C)(C)C" .
-0.45% (inactive)

Check the records and state inhibition for "COc1ccc(S(=O)(=O)N(CC(=O)N/N=C/c2ccccc2C(=O)O)c2ccccc2OC)cc1"
12.8% (inactive)

Identify inhibition associated with the compound "O=[N+]([O-])c1cc(Br)c(O)c(/C=N/Nc2nc3ccccc3s2)c1"
79.4% (active)

Please list inhibition recorded for the compound "COc1cc(NC(=O)c2ccc(CNc3c(N4CCCC4)c(=O)c3=O)cc2)cc(OC)c1OC"
8.38% (inactive)

Answer with the recorded inhibition of "CN1CCN(CCNC(=O)Nc2ccc([N+](=O)[O-])cc2)CC1" only.
6.06% (inactive)

Hello, please tell me recorded inhibition for this one: "O=C1/C(=C/c2ccc3c(c2)OCO3)CCC/C1=C\c1ccc2c(c1)OCO2"
-7.31% (inactive)

Please list inhibition recorded for the compound "CN(C)c1ccc(/C=C/C(=O)c2ccc(O)cc2)cc1[N+](=O)[O-]"
20.5% (inactive)

Specify inhibition for "COc1cc(OC)c(C(=O)Nc2ccc(N(C)C)cc2)cc1OC" and stop.
51.8% (active)

// fetch inhibition given entry "O=C(Cn1nnc(-c2ccccc2)n1)NCc1ccccc1"
-34.6% (inactive)

Please report inhibition for the following compound: "Cc1[nH]c2ccccc2c1/C=N\NC(=O)Cn1nnc(-c2ccccc2)n1"
62.8% (active)

Give me measured inhibition, please, for this compound: "COc1ccc(NC(=S)N2CCc3cc(OC)c(OC)cc3C2)cc1"
11.1% (inactive)

For the compound "O=C(Cn1nnc(-c2ccccc2)n1)N/N=C/c1ccc(-c2ccc(Cl)cc2)o1" , report inhibition.
54.1% (active)

Please give measured inhibition of the following entry: "Nc1nnnn1CC(=O)N/N=C/c1ccc(-c2cccc(Cl)c2)o1"
39.1% (inactive)

Provide inhibition value for the following compound: COc1ccc(C(=O)C2CCCN(Cc3ccc4nonc4c3)C2)c(C)c1 (centres undefined)
0.59% (inactive)

# return recorded inhibition for entry "FC(F)(F)c1nnc2sc(-c3ccco3)nn12"
2.95% (inactive)

Determine its reported inhibition: "O=[N+]([O-])c1cc(Cl)cc(/C=N/NC(=S)Nc2cc(S(=O)(=O)N3CCOCC3)ccc2Cl)c1O"
100% (active)

Read off the recorded inhibition for "COc1ccc(OCC(=O)Nc2ccc(N3CCC(C)CC3)cc2)cc1"
5.22% (inactive)

Give inhibition for "C/C(=N/Nc1nc(-c2ccccc2)c(CC(=O)O)s1)c1ccccc1"
55.8% (active)

Quick one: give measured inhibition for CC(C)(C)c1ccc(CCC2OCC(CN3CCOCC3)O2)cc1 (centres undefined)
-0.05% (inactive)

Return the recorded inhibition value; entry: "Cn1nc(C(C)(C)C)c([N+](=O)[O-])c1C(N)=O"
5.22% (inactive)

Specify measured inhibition for "CN(C)/C=C(/C(=O)c1ccc(Cl)c(Cl)c1)c1nnnn1-c1ccccc1" .
-12.2% (inactive)

Specify reported inhibition for the compound shown: "O=C(NCCCN1CCN(c2ccc(F)cc2)CC1)Nc1ccc([N+](=O)[O-])cc1"
52% (active)

// fetch inhibition given entry "O=C(N/N=C/c1ccc([N+](=O)[O-])o1)c1cccc(S(=O)(=O)N2CCOCC2)c1"
5.84% (inactive)

Note inhibition for the compound shown: "CCOC(=O)CN(C(=O)COc1nc(-c2ccccc2)cc(C)c1C#N)c1ccc(F)cc1"
7.27% (inactive)

Please give measured inhibition of the following entry: "O=C(O)Cc1sc(-c2ccc(C(=O)O)cc2)nc1-c1ccccc1"
15.3% (inactive)

# return recorded inhibition for input "CSC1=N/C(=C\c2ccc3c(c2)OCO3)C(=O)S1"
5.49% (inactive)

Please look at this compound and report its inhibition: "O=C(CN1CCN(c2ccc(O)cc2)CC1)Nc1cc(S(=O)(=O)N2CCOCC2)ccc1Cl"
49.8% (inactive)

Supply recorded inhibition for "NCC(=O)c1cccc2ccc[n+]([O-])c12" here.
17.5% (inactive)

Using known records, supply inhibition for CC(NC(=S)Nc1ccccc1)C(c1cccs1)N1CCOCC1 (centres undefined)
-2.6% (inactive)

Indicate its recorded inhibition; the compound in question is "O=C(CN1CCOCC1)N/N=C/c1ccc(-c2ccc(Br)cc2)o1"
10.4% (inactive)

Please list inhibition recorded for the compound "c1ccc2sc(NN=C3CCCC3)nc2c1"
5.28% (inactive)

Specify inhibition for "Cc1ccc(S(=O)(=O)Nc2nc3ccccc3s2)cc1[N+](=O)[O-]" and stop.
9.42% (inactive)

Could you please provide reported inhibition for "COc1cc(C=O)ccc1Oc1nnnn1-c1ccccc1" ? Thanks!
-17.8% (inactive)

Report measured inhibition; entry is "CCn1c2ccccc2c2cc(NC(=O)CNC)ccc21"
43.9% (inactive)

Look up and state reported inhibition for "CSc1n[nH]c(=S)n1N"
-7.77% (inactive)

Give inhibition for "O=C(Nc1ccc(Cl)cc1)c1ccsn1"
11.5% (inactive)

Provide inhibition value for the following compound: "Cn1nc(C(F)(F)F)cc1-c1ccc(/C=C(\C#N)C(=O)c2cccc(C(F)(F)F)c2)s1"
8.47% (inactive)

Please indicate inhibition recorded for CC(=O)NC(CC(=O)Nc1nccs1)c1ccccc1 (centres undefined)
-8.98% (inactive)

Specify reported inhibition for the compound shown: "O=C(Nc1ccc(-c2csc(Nc3cccc(C(F)(F)F)c3)n2)cc1)c1cccc(C(F)(F)F)c1"
16.6% (inactive)

Give the reported inhibition for this compound. "O=C(Nc1nnc(SCc2c(Cl)cccc2Cl)s1)c1cccc([N+](=O)[O-])c1"
27.4% (inactive)
